Recorded measurements of DC50, one per entry
ASSAY_SYSTEM: HPK1 (Homo sapiens)
Construct: A HiBiT tag was introduced by CRISPR on the N terminus of HPK1 in Jurkat cells; host or cells: Jurkat cells (ATCC TIB-152), monoclonal line with CRISPR knock-in of HiBiT at the endogenous HPK1 locus
Sequence (Q92918 whole entry): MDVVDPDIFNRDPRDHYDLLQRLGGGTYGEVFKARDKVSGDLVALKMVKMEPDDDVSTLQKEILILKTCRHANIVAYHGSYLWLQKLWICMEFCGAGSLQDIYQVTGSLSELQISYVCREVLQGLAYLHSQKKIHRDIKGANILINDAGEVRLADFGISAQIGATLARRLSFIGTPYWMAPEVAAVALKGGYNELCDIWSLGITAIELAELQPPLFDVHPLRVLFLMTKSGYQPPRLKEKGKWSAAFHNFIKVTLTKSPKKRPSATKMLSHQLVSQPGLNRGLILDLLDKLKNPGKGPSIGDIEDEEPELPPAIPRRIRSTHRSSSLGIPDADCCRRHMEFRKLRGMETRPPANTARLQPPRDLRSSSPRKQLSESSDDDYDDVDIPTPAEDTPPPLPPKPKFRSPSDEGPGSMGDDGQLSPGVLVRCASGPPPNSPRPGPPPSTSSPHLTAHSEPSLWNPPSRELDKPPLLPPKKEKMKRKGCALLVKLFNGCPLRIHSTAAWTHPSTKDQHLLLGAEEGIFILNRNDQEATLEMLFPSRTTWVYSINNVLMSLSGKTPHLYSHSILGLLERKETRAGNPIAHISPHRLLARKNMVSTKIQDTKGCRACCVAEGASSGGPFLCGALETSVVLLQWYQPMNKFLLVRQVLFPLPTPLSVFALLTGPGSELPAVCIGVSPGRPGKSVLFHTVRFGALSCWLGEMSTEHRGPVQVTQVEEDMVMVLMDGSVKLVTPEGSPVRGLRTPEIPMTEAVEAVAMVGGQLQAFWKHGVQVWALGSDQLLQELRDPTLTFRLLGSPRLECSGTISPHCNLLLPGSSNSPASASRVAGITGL
EXPERIMENT_DESCRIPTION: HPK1 Cellular HiBit Degradation Assay
Type: cell-based
STUDY_CONDITIONS: HiBiT HPK1 Jurkat cells, 24 hrs; concentration at which 50% of HPK1 was remaining; read-out: DC50 Category

1) CC(C)n1cnc2cc(-c3ccc4c(c3)N([C@H]3C[C@@H](N5CCCCC5)C3)C(=O)C43CCN(C(=O)C4CCN(C(=O)[C@H]5CC[C@H](Nc6ccc(C7CCC(=O)NC7=O)cc6)CC5)CC4)CC3)nc(Nc3ccncc3F)c21 (mixture of isomers) [Example 55] : 100 to 500 nM

Quick one: DC50 for CC(C)n1cnc2cc(-c3ccc4c(c3)N([C@H]3C[C@@H](N5CCCCC5)C3)C(=O)C43CCN(C(=O)[C@H]4CC[C@H](C(=O)N5CCC(Nc6ccc(C7CCC(=O)NC7=O)cn6)CC5)CC4)CC3)nc(Nc3ccncc3F)c21 (mixture of isomers) [Example 27] ?
< 100 nM

Quick one: DC50 for Cc1cc(F)c(Nc2nc(-c3ccc4c(c3)N([C@H]3C[C@@H](N5CCCCC5)C3)C(=O)C43CCN(C(=O)C4=CCN(C(=O)C5CCN(c6ccc7c(c6)C(=O)N(C6CCC(=O)NC6=O)C7=O)CC5)CC4)CC3)cc3ncn(C(C)C)c23)cc1C(=O)NC(C)C (mixture of isomers) [Example 37] ?
100 to 500 nM

Quick one: DC50 for CC(C)n1cnc2cc(-c3ccc4c(c3)N([C@H]3C[C@@H](N5CCCCC5)C3)C(=O)C43CCN(C(=O)C4C5CC4CN(C(=O)[C@H]4CC[C@H](Oc6ccc(C7CCC(=O)NC7=O)cc6)CC4)C5)CC3)nc(NC3CC3)c21 (some centres unmarked) [Example 241] ?
< 100 nM
